All figures here come from patent US10745416B2.

What GI50 was measured for each of the following?
subject.of.test: BaF3 KIF5B-RET_V804M (Homo sapiens, UniProt P07949, V804M, cells depend on it)
Construct: fused on or other part: P33176 (Kinesin-1 heavy chain)
Sequence (P07949 whole entry V804M, the tested form may be a part): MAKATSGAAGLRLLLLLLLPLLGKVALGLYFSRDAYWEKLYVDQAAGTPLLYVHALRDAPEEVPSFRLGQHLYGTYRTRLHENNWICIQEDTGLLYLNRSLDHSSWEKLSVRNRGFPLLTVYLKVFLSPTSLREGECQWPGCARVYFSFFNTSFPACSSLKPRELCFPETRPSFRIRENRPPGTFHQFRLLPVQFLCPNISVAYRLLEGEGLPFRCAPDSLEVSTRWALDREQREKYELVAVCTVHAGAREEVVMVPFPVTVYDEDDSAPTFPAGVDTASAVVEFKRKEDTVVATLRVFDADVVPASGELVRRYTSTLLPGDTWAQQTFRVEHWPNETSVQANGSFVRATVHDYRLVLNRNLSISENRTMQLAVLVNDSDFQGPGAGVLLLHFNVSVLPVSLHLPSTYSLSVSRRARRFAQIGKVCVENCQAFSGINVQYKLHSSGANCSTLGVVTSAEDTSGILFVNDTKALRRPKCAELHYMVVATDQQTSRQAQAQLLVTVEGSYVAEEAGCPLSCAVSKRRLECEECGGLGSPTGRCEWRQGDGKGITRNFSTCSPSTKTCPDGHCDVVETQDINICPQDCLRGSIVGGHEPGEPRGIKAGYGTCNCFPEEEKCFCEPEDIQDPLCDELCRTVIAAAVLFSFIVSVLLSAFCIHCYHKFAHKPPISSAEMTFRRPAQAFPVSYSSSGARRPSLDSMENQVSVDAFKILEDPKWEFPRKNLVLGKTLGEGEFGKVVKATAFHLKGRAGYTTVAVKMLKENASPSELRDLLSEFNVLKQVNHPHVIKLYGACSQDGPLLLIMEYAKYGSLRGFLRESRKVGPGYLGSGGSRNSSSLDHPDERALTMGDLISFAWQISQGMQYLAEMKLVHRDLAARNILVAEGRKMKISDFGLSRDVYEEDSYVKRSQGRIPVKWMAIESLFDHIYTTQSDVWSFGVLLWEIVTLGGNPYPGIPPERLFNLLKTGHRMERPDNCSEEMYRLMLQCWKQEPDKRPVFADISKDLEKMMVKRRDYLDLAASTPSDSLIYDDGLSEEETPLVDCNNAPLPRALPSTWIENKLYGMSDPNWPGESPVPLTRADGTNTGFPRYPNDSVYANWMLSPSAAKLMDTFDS
method.description: Cell proliferation assay (CellTiter-Glo, 72 hours)
Format: cell-based
test.conditions: anti-cell proliferation, read-out: BaF3 KIF5B-RET_V804M IC50
Numbers only, in nM.

Sample records with GI50:
>>> df
                                   molecule  unit_spec  result
0  C[C@@H]1COc2ncc(F)cc2CN2c3nc4c(cnn4cc3O[C@@H]3CC[C@@H]32)C(=O)N1 [Compound 11]         nM    3000
1  O=C1NCC2(CC2)COc2ncc(F)cc2CN2c3nc4c1cnn4cc3O[C@H]1CCC[C@H]12 [Compound 20]         nM    1860

Please look at the items below and tell me GI50 for each one, in order.
1. CC1(C)CNC(=O)c2cnn3cc4c(nc23)N(Cc2cc(F)cnc2OC1)[C@@H]1CCC[C@@H]1O4 [Compound 27]
2. C[C@H]1CNC(=O)c2cnn3cc4c(nc23)N(Cc2cc(F)cnc2O1)[C@@H]1CCC[C@@H]1O4 [Compound 5]
3. C[C@H]1CCNC(=O)c2cnn3cc4c(nc23)N(Cc2cc(F)cnc2O1)[C@@H]1CCC[C@@H]1O4 [Compound 15]
4. C[C@@H]1COc2ncc(F)cc2CN2c3nc4c(cnn4cc3O[C@H]3CCC[C@H]32)C(=O)N1 [Compound 6]
5. C[C@H]1CNC(=O)c2cnn3cc4c(nc23)N(Cc2cc(F)cc(F)c2O1)[C@@H]1CCC[C@@H]1O4 [Compound 3]

(A)
[2000, 598, 1240, 573, 1700]

Please look at the items below and tell me GI50 for each one, in order.
1. O=C1NC[C@H](O)COc2ncc(F)cc2CN2c3nc4c1cnn4cc3O[C@H]1CCC[C@H]12 [Compound 32]
2. O=C1NC[C@@H](F)COc2ncc(F)cc2CN2c3nc4c1cnn4cc3O[C@H]1CCC[C@H]12 [Compound 39]
3. C[C@H]1CNC(=O)c2cnn3cc4c(nc23)N(Cc2cc(F)cnc2O1)[C@@H]1COC[C@@H]1O4 [Compound 30]
4. CC1(C)COc2ncc(F)cc2CN2c3nc4c(cnn4cc3O[C@H]3CCC[C@H]32)C(=O)N1 [Compound 21]

(A)
1. 5720
2. 3000
3. 337
4. 3460
